tested on: Felis catus; test: Control blood pressure in normotensive anesthetized cat at dose 10 mg/Kg iv
Each entry below carries its recorded control BP.
Field: numeric (mmHg). Do not append units.

Illustrative cases are given below, each with its answer.
INSERT INTO results (compound, measure_name, unit_info, recorded_value) VALUES
  ('CCOC(=O)NCC(c1nnn[nH]1)c1c[nH]c2ccc(OC)cc12 (centres undefined)', 'control BP', 'mmHg', 160),
  ('CCOC(=O)C(CNC(C)=O)c1cn(C(=O)OCC)c2cccc(Cl)c12 (centres undefined)', 'control BP', 'mmHg', 183),
  ('NC(Cc1c[nH]c2ccc(O)cc12)C(=O)O (centres undefined)', 'control BP', 'mmHg', 162),
  ('NCC(C(=O)O)c1c[nH]c2cc(Cl)ccc12 (centres undefined)', 'control BP', 'mmHg', 179),
  ('CCOC(=O)C(CNC(C)=O)c1cn(C(=O)OCC)c2ccc(OC)cc12 (centres undefined)', 'control BP', 'mmHg', 195);

Then there is this compound:
What is its control BP for Felis catus? Entry: COC(=O)C(CN)c1c[nH]c2cccc(Cl)c12.Cl (centres undefined)
131

* * *

Each entry below carries its recorded control BP.
test system: Felis catus; assay: Control blood pressure in normotensive anesthetized cat at dose 10 mg/Kg iv
Field: numeric (mmHg). Do not append units.

Illustrative cases are given below, each with its answer.
INSERT INTO measurements (molecule, test_system, measure_name, recorded_value) VALUES
  ('Cl.NCC(C(=O)O)c1c[nH]c2ccc(Br)cc12 (configuration not stated)', 'Felis catus', 'control BP', 115),
  ('NCC(C(=O)O)c1c[nH]c2ccc(F)cc12 (configuration not stated)', 'Felis catus', 'control BP', 180),
  ('CCOC(=O)C(CN)c1c[nH]c2ccc(OC)cc12.Cl (configuration not stated)', 'Felis catus', 'control BP', 160),
  ('NCC(C(=O)O)c1c[nH]c2ccccc12 (configuration not stated)', 'Felis catus', 'control BP', 153),
  ('COC(=O)C(CN)c1c[nH]c2cc(Cl)ccc12.Cl (configuration not stated)', 'Felis catus', 'control BP', 140);

Tell me the measured control BP of COC(=O)C(CN)c1c[nH]c2ccc(F)cc12.Cl (configuration not stated) , please.
133

* * *

Each entry below carries its recorded BP.
system: Rattus norvegicus; experiment: Antihypertensive activity in renal hypertensive rats 1 hr after oral administration (10 mg/Kg); type: functional
Value and unit, in that order.

Illustrative cases are given below, each with its answer.
INSERT INTO measurements (compound, recorded_value) VALUES
  ('N[C@@H](Cc1c[nH]c2ccccc12)C(=O)O [TRYPTOPHAN]', '-12 mmHg'),
  ('COc1ccc2[nH]cc(C(CN)C(=O)OC(C)C)c2c1.Cl (stereo not given)', '7 mmHg'),
  ('COC(=O)C(CN)c1c[nH]c2cccc(Cl)c12.Cl (stereo not given)', '-7 mmHg');

Tell me the measured BP of CCOC(=O)NCC(c1nnn[nH]1)c1c[nH]c2ccccc12 (stereo not given) , please.
-10 mmHg

Tell me the measured BP of NCC(C(=O)O)c1c[nH]c2ccc(F)cc12 (stereo not given) , please.
-19 mmHg

Tell me the measured BP of COc1ccc2[nH]cc(C(CN)C(=O)O)c2c1 (stereo not given) , please.
-1 mmHg

Tell me the measured BP of COC(=O)C(CN)c1c[nH]c2cc(OC)c(OC)cc12.Cl (stereo not given) , please.
-15 mmHg

Tell me the measured BP of COC(=O)C(CN(C)C)c1c[nH]c2ccc(OC)cc12.O=C(O)C(=O)O (stereo not given) , please.
-9 mmHg

Tell me the measured BP of CCOC(=O)CC(c1nnn[nH]1)c1c[nH]c2cc(OC)c(OC)cc12 (stereo not given) , please.
-11 mmHg

Tell me the measured BP of COC(=O)C(CN)c1c[nH]c2ccc(O)cc12.Cl (stereo not given) , please.
7 mmHg

Tell me the measured BP of Cl.NCC(C(=O)O)c1c[nH]c2ccc(Br)cc12 (stereo not given) , please.
-12 mmHg

Tell me the measured BP of CCOC(=O)CC(c1nnn[nH]1)c1c[nH]c2ccc(OC)cc12 (stereo not given) , please.
-16 mmHg

Tell me the measured BP of CCOC(=O)NCC(c1nnn[nH]1)c1c[nH]c2ccc(OC)cc12 (stereo not given) , please.
-2 mmHg
